Please provide measured MIC for the entries that follow.
Tested on: Pseudomonas aeruginosa ATCC 27853
protocol: ≥ marks a high value that may be exact or a test limit, other limits are often not marked, values filed in µg/mL are converted to µM

A selection of reference data follows.
{"compound": "CC[C@H](C)[C@H](N)C(=O)N[C@@H](C)C(=O)NCC(=O)N[C@@H](CC(C)C)C(=O)N[C@@H](C)C(=O)N[C@@H](C)C(=O)N[C@@H](CC(N)=O)C(=O)N[C@@H](Cc1ccccc1)C(=O)N[C@@H](CC(C)C)C(=O)N1CCC[C@H]1C(=O)N[C@@H](CCC(N)=O)C(=O)N[C@H](C(=O)N[C@@H](CC(C)C)C(=O)N[C@H]1CSSC[C@@H](C(N)=O)NC(=O)[C@H](CCCCN)NC(=O)[C@H](CCCN=C(N)N)NC(=O)[C@H](C)NC(=O)[C@H]([C@@H](C)CC)NC(=O)[C@H](CCCCN)NC1=O)[C@@H](C)CC [IAGLAANFLPQILCKIARKC]", "reported.property": "MIC", "observed.result": "> 46.6 µM"}
{"compound": "CC(C)C[C@H](NC(=O)[C@H](Cc1c[nH]c2ccccc12)NC(=O)[C@H](CCCN=C(N)N)NC(=O)[C@H](Cc1c[nH]c2ccccc12)NC(=O)[C@H](Cc1c[nH]c2ccccc12)NC(=O)[C@H](Cc1c[nH]c2ccccc12)NC(=O)[C@H](CCCN=C(N)N)NC(=O)[C@H](Cc1c[nH]c2ccccc12)NC(=O)[C@@H](N)CC(C)C)C(N)=O [LWRWWWRWL]", "reported.property": "MIC", "observed.result": "128 µM"}

Now for a further compound.
Prompt: Provide measured MIC value, entry: CC(C)C[C@H](NC(=O)[C@H](CO)NC(=O)[C@H](CCCCN)NC(=O)[C@H](CC(C)C)NC(=O)[C@H](CCCCN)NC(=O)[C@H](CC(=O)O)NC(=O)[C@H](CC(C)C)NC(=O)[C@H](Cc1c[nH]c2ccccc12)NC(=O)[C@H](C)N)C(=O)NCC(=O)N[C@@H](CCCCN)C(=O)N[C@H](C(=O)N[C@H](C(=O)NCC(=O)O)C(C)C)C(C)C [AWLDKLKSLGKVVG]
Response: 170 µM

* * *

Tested on: Bacillus subtilis 168
reported.property: MIC (µM)
Give bare numbers, in µM.

Consider the worked cases shown below.
{"molecule": "CC[C@H](C)[C@H](NC(=O)[C@H](CC(C)C)NC(=O)[C@H](Cc1cnc[nH]1)NC(=O)CNC(=O)[C@H](CC(C)C)NC(=O)[C@@H](NC(=O)[C@H](CCCCN)NC(=O)[C@H](CCCCN)NC(=O)[C@H](Cc1c[nH]c2ccccc12)NC(=O)[C@H](CCSC)NC(=O)CN)[C@@H](C)CC)C(=O)N[C@@H](CCCN=C(N)N)C(N)=O [GMWKKILGHLIR]", "observed.result": 0.9}
{"molecule": "CC[C@H](C)[C@H](N)C(=O)N[C@H](C(=O)N[C@@H](CCCCN)C(=O)N[C@@H](CCCCN)C(=O)N[C@H](C(=O)N[C@H](C(=O)N[C@@H](CCCCN)C(=O)N[C@@H](CCCCN)C(=O)N[C@H](C(=O)N[C@H](C(=O)N[C@@H](CCCCN)C(=O)N[C@@H](CCCCN)C(N)=O)[C@@H](C)CC)[C@@H](C)CC)[C@@H](C)CC)[C@@H](C)CC)[C@@H](C)CC [IIKKIIKKIIKK]", "observed.result": 5}

Here is the next item to consider.
Prompt: Please report the measured MIC for CC[C@H](C)[C@H](NC(=O)CNC(=O)[C@H](C)NC(=O)[C@H](Cc1c[nH]c2ccccc12)NC(=O)[C@H](CC(C)C)NC(=O)[C@@H](N)CC(N)=O)C(=O)N[C@@H](CC(C)C)C(=O)N[C@@H](CCCCN)C(=O)N[C@@H](Cc1cnc[nH]1)C(=O)N[C@H](C(=O)N[C@H](C(=O)N[C@@H](CCCCN)C(N)=O)[C@@H](C)CC)[C@@H](C)CC [NLWAGILKHIIK]
Response: 4.5

* * *

Test system: Staphylococcus aureus NCTC 12493
Kindly state MIC for each of the entries shown.
Give bare numbers, in µM.

Sample records with MIC:
{"compound": "CC[C@H](C)[C@H](NC(=O)[C@H](CC(C)C)NC(=O)[C@@H]1CCCN1C(=O)[C@H](CC(C)C)NC(=O)[C@@H](N)Cc1ccccc1)C(=O)N[C@@H](CC(C)C)C(=O)N[C@@H](CCCN=C(N)N)C(=O)N[C@@H](CCCCN)C(=O)N[C@H](C(=O)N[C@H](C(=O)N[C@H](C(=O)N[C@@H](C)C(=O)N[C@@H](CC(C)C)C(N)=O)[C@@H](C)O)C(C)C)[C@@H](C)CC [FLPLILRKIVTAL]", "MIC / µM": 4}
{"compound": "CC[C@H](C)[C@H](NC(=O)CNC(=O)[C@@H](NC(=O)[C@H](C)NC(=O)[C@@H](NC(=O)[C@H](CCCCN)NC(=O)[C@@H]1CCCN1C(=O)[C@@H](NC(=O)[C@H](CC(C)C)NC(=O)[C@H](CO)NC(=O)[C@H](CC(C)C)NC(=O)[C@@H](N)Cc1ccccc1)[C@@H](C)CC)[C@@H](C)CC)[C@@H](C)O)C(=O)N[C@@H](C)C(=O)N[C@@H](C)C(=O)N[C@@H](CC(C)C)C(=O)N[C@@H](C)C(=O)N[C@@H](CCCCN)C(=O)N[C@@H](Cc1cnc[nH]1)C(=O)N[C@@H](CC(C)C)C(N)=O [FLSLIPKIATGIAALAKHL]", "MIC / µM": 2}

Read the next record carefully.
Prompt: Give the value of MIC reported for the following: CC[C@H](C)[C@@H]1NC(=O)[C@H](C)NC(=O)[C@@H](NC(=O)[C@H](Cc2ccccc2)NC(=O)[C@@H](NC(=O)[C@H](CCCCN)NC(=O)[C@@H]2CCCN2C(=O)[C@H](CC(C)C)NC(=O)[C@H](Cc2ccccc2)NC(=O)[C@H](CCCCN)NC(=O)[C@@H](N)CCCCN)[C@@H](C)CC)CSSC[C@@H](C(=O)O)NC(=O)[C@H](CCCCN)NC(=O)[C@H](CCCCN)NC(=O)[C@H]([C@@H](C)O)NC1=O [KKFLPKIFCAITKKC]
Response: 16

* * *

Tested on: Pseudomonas aeruginosa ATCC 27853
protocol: ≥ marks a high value that may be exact or a test limit, other limits are often not marked, values filed in µg/mL are converted to µM
reported.property: MIC (µM)
Answers are plain numbers, in µM.

{"molecule": "CC(C)C[C@H](NC(=O)CN)C(=O)N[C@@H](CC(C)C)C(=O)N[C@@H](CCCCN)C(=O)N[C@@H](CCCN=C(N)N)C(=O)N[C@@H](CC(C)C)C(=O)N[C@@H](CCCCN)C(=O)N[C@H](C(=O)N[C@@H](CC(C)C)C(=O)N[C@@H](C)C(N)=O)[C@@H](C)O [GLLKRLKTLA]", "unit.of.measurement": "µM", "observed.result": 64}

Prompt: Please report the measured MIC for CC(C)C[C@H](NC(=O)[C@H](Cc1cnc[nH]1)NC(=O)[C@H](CC(C)C)NC(=O)[C@H](CO)NC(=O)[C@H](CC(C)C)NC(=O)[C@H](CCCCN)NC(=O)[C@H](Cc1ccccc1)NC(=O)[C@@H]1CCCN1)C(N)=O [PFKLSLHL]
Response: 32

* * *

Kindly state MIC for each of the entries shown.
System: Pseudomonas aeruginosa ATCC 27853
protocol: ≥ marks a high value that may be exact or a test limit, other limits are often not marked, values filed in µg/mL are converted to µM

Worked set:
{"structure.smiles": "CC(C)C[C@H](NC(=O)[C@H](Cc1ccc(O)cc1)NC(=O)[C@H](CCCCN)NC(=O)[C@H](Cc1ccccc1)NC(=O)[C@H](CC(C)C)NC(=O)[C@H](CCCN=C(N)N)NC(=O)[C@H](CCCCN)NC(=O)[C@H](Cc1ccccc1)NC(=O)[C@H](CC(C)C)NC(=O)[C@H](CCCN=C(N)N)NC(=O)[C@@H](N)CCCCN)C(=O)N[C@@H](CCCN=C(N)N)C(=O)N[C@@H](CCCN=C(N)N)C(=O)N[C@@H](Cc1ccccc1)C(=O)O", "MIC": "0.507 µM"}
{"structure.smiles": "CSCC[C@H](NC(=O)[C@H](CCCCN)NC(=O)[C@H](CCCCN)NC(=O)[C@H](CCCCN)NC(=O)[C@H](CCCN=C(N)N)NC(=O)[C@H](CCCN=C(N)N)NC(=O)[C@H](Cc1ccc(O)cc1)NC(=O)[C@@H](N)CCCN=C(N)N)C(=O)N[C@@H](CCCCN)C(=O)N[C@@H](CCCCN)C(N)=O", "MIC": "> 100 µM"}

Prompt: Answer with the recorded MIC of CC[C@H](C)[C@H](N)C(=O)N[C@@H](CC(C)C)C(=O)NCC(=O)N[C@@H](CCCCN)C(=O)N[C@@H](CC(C)C)C(=O)N[C@@H](CC(C)C)C(=O)N[C@@H](CCCCN)C(=O)N[C@H](C(=O)N[C@@H](C)C(=O)N[C@@H](C)C(=O)N[C@@H](CCCCN)C(=O)N[C@@H](CC(C)C)C(=O)N[C@@H](CC(C)C)C(=O)N[C@@H](CO)C(=O)N[C@@H](CC(N)=O)C(=O)N[C@@H](CC(C)C)C(N)=O)[C@@H](C)O only.
Response: 8 µM
